- ASSAYED TARGET: Wee1-like protein kinase (Homo sapiens)
- Sequence (P30291 whole entry, the tested form may be a part): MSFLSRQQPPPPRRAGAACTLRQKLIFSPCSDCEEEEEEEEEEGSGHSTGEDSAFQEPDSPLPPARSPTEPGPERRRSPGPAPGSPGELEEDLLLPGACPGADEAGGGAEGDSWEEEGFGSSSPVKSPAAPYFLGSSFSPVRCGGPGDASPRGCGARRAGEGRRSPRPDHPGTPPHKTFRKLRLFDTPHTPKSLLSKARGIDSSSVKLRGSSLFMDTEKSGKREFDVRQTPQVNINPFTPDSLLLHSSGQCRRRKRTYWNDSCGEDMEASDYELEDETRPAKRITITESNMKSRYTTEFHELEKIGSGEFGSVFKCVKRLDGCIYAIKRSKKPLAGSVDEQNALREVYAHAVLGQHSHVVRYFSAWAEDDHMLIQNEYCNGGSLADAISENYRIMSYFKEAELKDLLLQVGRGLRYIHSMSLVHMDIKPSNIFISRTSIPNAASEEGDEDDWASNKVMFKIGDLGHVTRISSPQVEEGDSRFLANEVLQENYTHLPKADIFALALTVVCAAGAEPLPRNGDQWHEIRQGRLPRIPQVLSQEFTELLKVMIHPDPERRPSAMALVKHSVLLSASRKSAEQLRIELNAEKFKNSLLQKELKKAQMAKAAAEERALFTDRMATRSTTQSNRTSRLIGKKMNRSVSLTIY
- ASSAY NOTES: Inhibition of human Wee1 (215 to 647 residues) using polyornithine/tyrosine (4:1) as substrate incubated for 5 mins in presence of ATP by micro beta plate reader analysis
REPORTED METRIC: IC50 (nM)

compound_structure_string=C=CCn1c(=O)c2cnc(Nc3ccc4c(c3)CN(C)CC4)nc2n1-c1cccc(-c2cccnn2)n1 unit_symbol=nM reported_value=2.3
compound_structure_string=C=CCn1c(=O)c2cnc(Nc3ccc(N4CCN(C)CC4)cc3)nc2n1-c1cccc(-c2cnc(Cl)cn2)n1 unit_symbol=nM reported_value=2.2
compound_structure_string=C=CCn1c(=O)c2cnc(Nc3ccc(N4CCC(N5CCN(C)CC5)CC4)cc3)nc2n1-c1cccc(-c2ncccn2)n1 unit_symbol=nM reported_value=3.7
compound_structure_string=C=CCn1c(=O)c2cnc(Nc3ccc(N4CCN(C)CC4)cc3)nc2n1-c1cccc(-c2cccc(F)n2)n1 unit_symbol=nM reported_value=2.2
compound_structure_string=C=CCn1c(=O)c2cnc(Nc3ccc(N4CCN(C)CC4)cc3)nc2n1-c1cccc(-n2cc(C)cn2)n1 unit_symbol=nM reported_value=3.7
compound_structure_string=C=CCn1c(=O)c2cnc(Nc3ccc(N4CCN(C)CC4)cc3)nc2n1-c1ccc2ncn(C(C)C)c2c1 unit_symbol=nM reported_value=2.1
compound_structure_string=C=CCn1c(=O)c2cnc(Nc3ccc(N4C[C@@H](C)N[C@@H](C)C4)cc3)nc2n1-c1cccc(-c2cnccn2)n1 unit_symbol=nM reported_value=1.7
compound_structure_string=C=CCn1c(=O)c2cnc(Nc3ccc(N4CCN(CCN(C)C)CC4)cc3)nc2n1-c1cccc(-c2cnccn2)n1 unit_symbol=nM reported_value=3.1
compound_structure_string=C=CCn1c(=O)c2cnc(Nc3ccc(N4C[C@H]5C[C@@H]4CN5C)cc3)nc2n1-c1cccc(-c2cnccn2)n1 unit_symbol=nM reported_value=2.3
compound_structure_string=C=CCn1c(=O)c2cnc(Nc3ccc(N4CCN(CCN(C)C)CC4)cc3)nc2n1-c1cccc(-c2ncccn2)n1 unit_symbol=nM reported_value=3.1
compound_structure_string=C=CCn1c(=O)c2cnc(Nc3ccc(N4CCNCC4)cc3)nc2n1-c1cccc(-c2ncccn2)n1 unit_symbol=nM reported_value=0.89
compound_structure_string=C=CCn1c(=O)c2cnc(Nc3ccc(N4C5CCC4CN(C)C5)cc3)nc2n1-c1cccc(-c2cnccn2)n1 unit_symbol=nM reported_value=2
compound_structure_string=C=CCn1c(=O)c2cnc(Nc3ccc(N4CCN(C)CC4)cc3)nc2n1-c1cccc(-c2ccc(F)cn2)n1 unit_symbol=nM reported_value=1.8

---

- ASSAY NOTES: Metabolic stability in human liver microsome assessed as parent compound remaining measured at 60 mins by LCMS/MS analysis
- Format: ADME
- DETAILS: liver microsomes, read-out: Stability
Quick rule for you: remaining at 1 h under 70% gets label 1, anything else gets label 0.

compound_structure_string=C=CCn1c(=O)c2cnc(Nc3ccc(N4[C@@H]5CC[C@H]4CN(C)C5)cc3)nc2n1-c1cccc(-c2ncccn2)n1 class_label="label 1"
compound_structure_string=C=CCn1c(=O)c2cnc(Nc3ccc(C4CCN(C)CC4)cc3)nc2n1-c1cccc(-c2ncccn2)n1 class_label="label 1"
compound_structure_string=C=CCn1c(=O)c2cnc(Nc3ccc(N4CCNCC4)cc3)nc2n1-c1cccc(-c2ncccn2)n1 class_label="label 0"
compound_structure_string=C=CCn1c(=O)c2cnc(Nc3ccc(N4CCN(C)CC4)cc3)nc2n1-c1cccc(-n2cnc(C)c2)n1 class_label="label 1"
compound_structure_string=C=CCn1c(=O)c2cnc(Nc3ccc(N4CCN(C)CC4)cc3)nc2n1-c1cccc(-c2ccc(F)cn2)n1 class_label="label 1"
compound_structure_string=C=CCn1c(=O)c2cnc(Nc3ccc(N4CCN(C)CC4)cc3)nc2n1-c1cccc(-n2cccn2)n1 class_label="label 1"
compound_structure_string=C=CCn1c(=O)c2cnc(Nc3ccc(N4CCN(CCN(C)C)CC4)cc3)nc2n1-c1cccc(-c2ncccn2)n1 class_label="label 0"
